Property: pKd; scope: individual binders
Target: Recombinant protein Claudin 18.2
Sequence (chain, as listed by the source limits assumed, form in doubt): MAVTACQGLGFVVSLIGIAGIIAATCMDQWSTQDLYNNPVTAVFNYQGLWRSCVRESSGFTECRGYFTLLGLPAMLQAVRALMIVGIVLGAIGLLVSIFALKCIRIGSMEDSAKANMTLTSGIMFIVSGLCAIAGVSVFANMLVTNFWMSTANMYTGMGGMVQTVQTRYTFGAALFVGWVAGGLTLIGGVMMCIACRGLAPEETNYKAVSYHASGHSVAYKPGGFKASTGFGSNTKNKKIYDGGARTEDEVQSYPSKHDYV
Experiment: ELISA on plate-coated recombinant Claudin 18.2, OD450; Kd table under the graph, no unit in the table, unit from the x axis log[antibody] nM
Reminder that pKd is minus the log10 of a molar concentration.

{"binder": "h5C9ou (antibody, V domains shown) VH: EVQLVESGGGLVQPGGSLRLSCAVSGYTFSMNWVRQAPGKGLEWVAWINMYTGEPTYADDFKGRFTISRDDSKNTLYLQMNSLRAEDTAVYYCARLSKGNGMDYWGQGTLVTVSS VL: DIQMTQSPSSLSASVGDRVTITCKSSQSLLNSGNQKSYLTWYQQKPGKAPKLLIYWASTLESGVPSRFSGSGSGTDYTLTISSLQPEDFATYYCQNAYSFPFTFGQGTKVEIK", "pKd": 10.04}
{"binder": "h5C9oo (antibody, V domains shown) VH: EVQLVESGGGLVQPGGSLRLSCAVSGYTFSMNWVRQAPGKGLEWVAWINMYTGEPTYADDFKGRFTISRDDSKNTLYLQMNSLRAEDTAVYYCARLVRGNGFDYWGQGTLVTVSS VL: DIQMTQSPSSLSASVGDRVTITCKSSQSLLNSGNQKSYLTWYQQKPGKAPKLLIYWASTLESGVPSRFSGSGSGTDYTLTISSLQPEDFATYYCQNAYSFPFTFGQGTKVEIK", "pKd": 9.92}
{"binder": "h5C9on (antibody, V domains shown) VH: EVQLVESGGGLVQPGGSLRLSCAVSGYTFSMNWVRQAPGKGLEWVAWINMYTGEPTYADDFKGRFTISRDDSKNTLYLQMNSLRAEDTAVYYCARTAPGNGFDYWGQGTLVTVSS VL: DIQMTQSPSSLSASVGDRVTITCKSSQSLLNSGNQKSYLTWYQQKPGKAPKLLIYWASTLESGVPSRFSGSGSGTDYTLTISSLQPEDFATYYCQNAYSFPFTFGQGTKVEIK", "pKd": 9.88}
{"binder": "h5C9ov (antibody, V domains shown) VH: EVQLVESGGGLVQPGGSLRLSCAVSGYTFSMNWVRQAPGKGLEWVAWINMYTGEPTYADDFKGRFTISRDDSKNTLYLQMNSLRAEDTAVYYCARLVKGNGFDYWGQGTLVTVSS VL: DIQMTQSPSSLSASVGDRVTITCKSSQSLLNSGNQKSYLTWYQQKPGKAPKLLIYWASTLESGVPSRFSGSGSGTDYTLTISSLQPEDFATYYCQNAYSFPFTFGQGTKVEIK", "pKd": 9.97}

In the following, a different binder is considered.
[ask] What value of pKd has been recorded for this entry: humanized anti-Claudin 18.2 antibody h5C9oao (antibody, human IgG1, kappa, V domains shown) VH: EVQLVESGGGLVQPGGSLRLSCAVSGYTFSMNWVRQAPGKGLEWVAWINMYTGEPTYADDFKGRFTISRDDSKNTLYLQMNSLRAEDTAVYYCARLARGNSMDYWGQGTLVTVSS VL: DIQMTQSPSSLSASVGDRVTITCKSSQSLLNSGNQKSYLTWYQQKPGKAPKLLIYWASTLESGVPSRFSGSGSGTDYTLTISSLQPEDFATYYCQNAYFFPFTFGQGTKVEIKR
[reply] 9.87

Source: patent US20200207857A1
